# Organism: Rattus norvegicus
# Test Details: Open TG-GATES - Regimen: Single
# Assay type: toxicity, organism-based, Sprague-Dawley
# Design: regimen Single, gender Male, age 6 weeks
# Condition Label: in vivo, po, 0 mg/kg, 9 h, tissue Blood, route gavage, dose level Control
Readout Kind: MCH (pg)
Reply numerically in pg, unit not repeated.

CN(C)CCCN1c2ccccc2CCc2ccc(Cl)cc21 [CLOMIPRAMINE] = 21

With those in mind, consider the next molecule.
**Query** # MCH lookup, item CN1C(=O)CN=C(c2ccccc2)c2cc(Cl)ccc21 [DIAZEPAM]
**Result** 21.7

---

Measured TBIL of individual entries
# Species: Rattus norvegicus
# Test Details: Open TG-GATES - Regimen: Daily Repeat
# Assay type: toxicity, organism-based, Sprague-Dawley
# Parameters: regimen Daily Repeat, gender Male, age 6 weeks
# Condition Label: in vivo, po, 1000 mg/kg, […], tissue Plasma, route gavage, dose level High, time 7 day
Reply numerically in mg/dL, unit not repeated.

CCOc1ccc(NC(=O)CC(C)O)cc1 (stereo unspecified) [BUCETIN] = 0.08
CCOC(=O)CCC(=O)O[C@H]1[C@H](O[C@@H]2[C@@H](C)[C@H](O[C@H]3C[C@@](C)(OC)[C@@H](O)[C@H](C)O3)[C@@H](C)C(=O)O[C@H](CC)[C@@](C)(O)[C@H](O)[C@@H](C)C(=O)[C@H](C)C[C@@]2(C)O)O[C@H](C)C[C@@H]1N(C)C [ERYTHROMYCIN ETHYLSUCCINATE] = 0.01
NC(N)=Nc1nc(CSCCC(N)=NS(N)(=O)=O)cs1 [FAMOTIDINE] = 0.1
COc1ccc2[nH]c([S+]([O-])Cc3ncc(C)c(OC)c3C)nc2c1 (stereo unspecified) [OMEPRAZOLE] = 0.1
CC(C)OC(=O)C(C)(C)Oc1ccc(C(=O)c2ccc(Cl)cc2)cc1 [FENOFIBRATE] = 0.034

**Query** # TBIL lookup, item COC1=CC(=O)C[C@@H](C)[C@]12Oc1c(Cl)c(OC)cc(OC)c1C2=O [GRISEOFULVIN]
**Result** 0.1

---

# Organism: Rattus norvegicus
# Test Details: Open TG-GATES - Regimen: Single
# Assay type: toxicity, organism-based, Sprague-Dawley
# Design: regimen Single, gender Male, age 6 weeks
# Condition Label: in vivo, po, 100 mg/kg, 6 h, tissue Kidney, route gavage, dose level High
Readout Kind: KIDNEY_R
Don't forget the unit after the value.

Here's what some known entries look like.
CC1=C(/C=C/C(C)=C/C=C/C(C)=C/CO)C(C)(C)CCC1 = 0.9 g
CN(C)CCCN1c2ccccc2CCc2ccccc21 = 0.9 g
CN(C)CCCN1c2ccccc2CCc2ccc(Cl)cc21 = 1 g

With those in mind, consider the next compound.
**Query** # KIDNEY_R lookup, item CN(C)CCN(Cc1cccs1)c1ccccn1
**Result** 0.8 g

---

# Organism: Rattus norvegicus
# Test Details: Open TG-GATES - Regimen: Single
# Format: toxicity, organism-based, Sprague-Dawley
# Parameters: regimen Single, gender Male, age 6 weeks
# Condition Label: in vivo, po, 30 mg/kg, 9 h, tissue Plasma, route gavage, dose level Middle
Measured ALT of individual entries
Reply numerically in IU/L, unit not repeated.

Here's what some known entries look like.
CN(C)CCN(Cc1cccs1)c1ccccn1 = 35.8
CN(C)CCCN1c2ccccc2CCc2ccc(Cl)cc21 = 36.2
CN(C)CCCN1c2ccccc2CCc2ccccc21 = 35.8

**Query** # ALT lookup, item CC1=C(/C=C/C(C)=C/C=C/C(C)=C/CO)C(C)(C)CCC1
**Result** 33

---

# Species on record: Rattus norvegicus
# Test Details: Open TG-GATES - Regimen: Daily Repeat
# Assay type: toxicity, organism-based, Sprague-Dawley
# Set-up: regimen Daily Repeat, gender Male, age 6 weeks
# Condition Label: in vivo, po, 100 mg/kg, […], tissue Plasma, route gavage, dose level Low, time 28 day
Measured DBIL of individual entries

COC1=CC(=O)C[C@@H](C)[C@]12Oc1c(Cl)c(OC)cc(OC)c1C2=O = 0.086 mg/dL
CCOC(=O)CCC(=O)O[C@H]1[C@H](O[C@@H]2[C@@H](C)[C@H](O[C@H]3C[C@@](C)(OC)[C@@H](O)[C@H](C)O3)[C@@H](C)C(=O)O[C@H](CC)[C@@](C)(O)[C@H](O)[C@@H](C)C(=O)[C@H](C)C[C@@]2(C)O)O[C@H](C)C[C@@H]1N(C)C [ERYTHROMYCIN ETHYLSUCCINATE] = 0 mg/dL
CCOc1ccc(NC(=O)CC(C)O)cc1 (stereo not given) = 0.022 mg/dL

**Query** # DBIL lookup, item COc1ccc2[nH]c([S+]([O-])Cc3ncc(C)c(OC)c3C)nc2c1 (stereo not given)
**Result** 0.088 mg/dL

**Query** # DBIL lookup, item NC(N)=Nc1nc(CSCCC(N)=NS(N)(=O)=O)cs1
**Result** 0.074 mg/dL

---

# Species: Rattus norvegicus
# Test Details: Open TG-GATES - Regimen: Daily Repeat
# Format: toxicity, organism-based, Sprague-Dawley
# Design: regimen Daily Repeat, gender Male, age 6 weeks
# Condition Label: in vivo, po, 100 mg/kg, […], tissue Blood, route gavage, dose level Low, time 7 day
Measured Hb of individual entries
Reply numerically in g/dL, unit not repeated.

CCOC(=O)CCC(=O)O[C@H]1[C@H](O[C@@H]2[C@@H](C)[C@H](O[C@H]3C[C@@](C)(OC)[C@@H](O)[C@H](C)O3)[C@@H](C)C(=O)O[C@H](CC)[C@@](C)(O)[C@H](O)[C@@H](C)C(=O)[C@H](C)C[C@@]2(C)O)O[C@H](C)C[C@@H]1N(C)C [ERYTHROMYCIN ETHYLSUCCINATE] = 13.6

**Query** # Hb lookup, item COC1=CC(=O)C[C@@H](C)[C@]12Oc1c(Cl)c(OC)cc(OC)c1C2=O
**Result** 13.6

---

# Organism: Rattus norvegicus
# Test Details: Open TG-GATES - Regimen: Single
# Assay type: toxicity, organism-based, Sprague-Dawley
# Set-up: regimen Single, gender Male, age 6 weeks
# Condition Label: in vivo, po, 0 mg/kg, 9 h, tissue Plasma, route gavage, dose level Control
Readout Kind: GLC (mg/dL)
Reply numerically in mg/dL, unit not repeated.

Here's what some known entries look like.
C[C@@H]1C[C@H]2[C@@H]3CCC4=CC(=O)C=C[C@]4(C)[C@@]3(F)[C@@H](O)C[C@]2(C)[C@@]1(O)C(=O)CO = 171.4
CC(C)OC(=O)C(C)(C)Oc1ccc(C(=O)c2ccc(Cl)cc2)cc1 [FENOFIBRATE] = 178.8

**Query** # GLC lookup, item CN1C(=O)CN=C(c2ccccc2)c2cc(Cl)ccc21
**Result** 204

**Query** # GLC lookup, item CC1=C(/C=C/C(C)=C/C=C/C(C)=C/CO)C(C)(C)CCC1
**Result** 183

---

# Species on record: Rattus norvegicus
# Test Details: Open TG-GATES - Regimen: Single
# Format: toxicity, organism-based, Sprague-Dawley
# Design: regimen Single, gender Male, age 6 weeks
# Condition Label: in vivo, po, 10 mg/kg, 9 h, tissue Plasma, route gavage, dose level Low
Please note: AST exactly at 70 IU/L is -1. Only values below 70 IU/L get 1.

**Query** Consider the molecule CN(C)CCN(Cc1cccs1)c1ccccn1 . Is its AST strictly less than 70 IU/L?
**Result** 1

---

# Organism: Rattus norvegicus
# Test Details: Open TG-GATES - Regimen: Single
# Format: toxicity, organism-based, Sprague-Dawley
# Parameters: regimen Single, gender Male, age 6 weeks
# Condition Label: in vivo, po, 30 mg/kg, 3 h, tissue Blood, route gavage, dose level Middle
Measured Mono of individual entries
Reply numerically in %, unit not repeated.

Here's what some known entries look like.
CN(C)CCN(Cc1cccs1)c1ccccn1 = 2.2
CC1=C(/C=C/C(C)=C/C=C/C(C)=C/CO)C(C)(C)CCC1 [RETINOL] = 3
CN(C)CCCN1c2ccccc2CCc2ccccc21 [IMIPRAMINE] = 3

**Query** # Mono lookup, item CN(C)CCCN1c2ccccc2CCc2ccc(Cl)cc21 [CLOMIPRAMINE]
**Result** 2.8

---

# Organism: Rattus norvegicus
# Test Details: Open TG-GATES - Regimen: Daily Repeat
# Assay type: toxicity, organism-based, Sprague-Dawley
# Design: regimen Daily Repeat, gender Male, age 6 weeks
# Condition Label: in vivo, po, 1000 mg/kg, […], tissue Plasma, route gavage, dose level High, time 14 day
Readout Kind: Na (meq/L)
Reply numerically in meq/L, unit not repeated.

CCOC(=O)CCC(=O)O[C@H]1[C@H](O[C@@H]2[C@@H](C)[C@H](O[C@H]3C[C@@](C)(OC)[C@@H](O)[C@H](C)O3)[C@@H](C)C(=O)O[C@H](CC)[C@@](C)(O)[C@H](O)[C@@H](C)C(=O)[C@H](C)C[C@@]2(C)O)O[C@H](C)C[C@@H]1N(C)C [ERYTHROMYCIN ETHYLSUCCINATE] = 142

**Query** # Na lookup, item COC1=CC(=O)C[C@@H](C)[C@]12Oc1c(Cl)c(OC)cc(OC)c1C2=O
**Result** 140.6

**Query** # Na lookup, item COc1ccc2[nH]c([S+]([O-])Cc3ncc(C)c(OC)c3C)nc2c1 (stereo not given)
**Result** 141.2

**Query** # Na lookup, item NC(N)=Nc1nc(CSCCC(N)=NS(N)(=O)=O)cs1
**Result** 140.6

**Query** # Na lookup, item CCOc1ccc(NC(=O)CC(C)O)cc1 (stereo not given)
**Result** 143.6
